target: Androgen receptor (Homo sapiens) (UniProt P10275); assay: qHTS assay to identify small molecule antagonists of the androgen receptor (AR) signaling pathway using the MDA cell line (AID 743042; further: nearly all actives have a fitted effect of over 55% in size); conditions: MDA-kb2 AR-luc, MMTV luciferase, R1881 antagonist, 16 h; series mostly up to 70.3 µM
Sequence (P10275 whole entry, looked up): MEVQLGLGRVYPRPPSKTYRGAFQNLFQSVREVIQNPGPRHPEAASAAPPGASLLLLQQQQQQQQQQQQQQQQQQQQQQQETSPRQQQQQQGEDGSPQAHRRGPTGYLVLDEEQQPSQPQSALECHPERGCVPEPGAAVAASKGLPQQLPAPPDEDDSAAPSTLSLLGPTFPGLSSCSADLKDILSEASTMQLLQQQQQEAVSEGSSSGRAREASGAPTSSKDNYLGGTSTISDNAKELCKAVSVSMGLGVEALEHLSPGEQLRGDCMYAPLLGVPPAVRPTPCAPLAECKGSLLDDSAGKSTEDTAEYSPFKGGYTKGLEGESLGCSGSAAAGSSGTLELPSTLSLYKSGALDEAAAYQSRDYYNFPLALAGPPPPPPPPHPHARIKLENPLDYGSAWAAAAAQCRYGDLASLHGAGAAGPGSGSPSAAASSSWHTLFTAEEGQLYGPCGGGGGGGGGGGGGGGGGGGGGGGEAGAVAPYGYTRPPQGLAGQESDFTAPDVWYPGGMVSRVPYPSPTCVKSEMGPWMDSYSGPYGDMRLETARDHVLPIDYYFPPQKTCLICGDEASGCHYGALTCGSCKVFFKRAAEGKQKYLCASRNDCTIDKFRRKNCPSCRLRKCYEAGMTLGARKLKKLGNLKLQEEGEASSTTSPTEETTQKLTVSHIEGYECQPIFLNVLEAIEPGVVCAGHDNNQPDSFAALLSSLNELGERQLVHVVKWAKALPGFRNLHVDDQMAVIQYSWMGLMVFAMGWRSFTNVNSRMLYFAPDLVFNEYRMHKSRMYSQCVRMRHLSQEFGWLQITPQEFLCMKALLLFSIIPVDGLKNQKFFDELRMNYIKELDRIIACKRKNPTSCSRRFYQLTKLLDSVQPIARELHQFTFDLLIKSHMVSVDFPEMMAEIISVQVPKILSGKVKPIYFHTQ
Inconclusive results are not listed. Activity calls are given as the source filed them. The call rests on the fitted dose curve; in most records, active means well fitted inhibition curve with a large enough effect in the repeat runs; inconclusive means weak or mixed curves, or effect the other way; inactive means no such curve, though single readings can be large or run the other way.
# valid calls are active, inactive; nothing else

>  <COMPOUND>
COc1ccc(OC)c(Cl)c1

>  <TARGET UNDER TEST>
Androgen receptor (Homo sapiens) (UniProt P10275)

>  <QUALITATIVE LABEL>
inactive

$$$$
>  <COMPOUND>
O=C(NCCc1c[nH]c2ccccc12)c1cccnc1

>  <TARGET UNDER TEST>
Androgen receptor (Homo sapiens) (UniProt P10275)

>  <QUALITATIVE LABEL>
inactive

$$$$
>  <COMPOUND>
CCC(C)NC(N)=O (centres undefined)

>  <TARGET UNDER TEST>
Androgen receptor (Homo sapiens) (UniProt P10275)

>  <QUALITATIVE LABEL>
inactive

$$$$

# input Could you check what this test reported for "Cc1cc(C(C)(C)C)c(O)c(C)c1CC1=NCCN1" ?
# output inactive

# input // outcome(item) with item = "COc1nccnc1NS(=O)(=O)c1ccc(N)cc1"
# output inactive

# input What was the test verdict on CC(CO)c1ccccc1 (centres undefined) ?
# output inactive

# input Recorded test outcome, item "CC(C)c1ccc2cc(C(C)C)ccc2c1"
# output inactive

# input For "O=C(Nc1ccc(Cl)c(Cl)c1)C1CC1" , what call appears in the results of this test?
# output active

# input // param item: "O=C(OCC(COC(=O)c1cccnc1)(COC(=O)c1cccnc1)COC(=O)c1cccnc1)c1cccnc1" ; yields the recorded call
# output inactive

# input Any idea what this test logged for CC(S)C(=O)NCC(=O)O (centres undefined) ?
# output inactive

# input Returns: the outcome recorded for "CNC(=O)[C@H]1O[C@@H](n2cnc3c(NCc4cc(Cl)ccc4OCc4cc(C)no4)ncnc32)[C@H](O)[C@@H]1N" in this assay.
# output inactive

# input # fetch the recorded call for "CCCCOC(=O)c1ccccc1" here
# output inactive

# input Please let me know the test result on file for CCCOC(=O)C(C)O (centres undefined) .
# output inactive

# input Dear colleague, could you share the recorded outcome for "CCCC/C=C/C=C\C=O" when you have a moment?
# output inactive

# input For "O=C(OCc1ccccc1)C(=O)OCc1ccccc1" , what call appears in the results of this test?
# output inactive

# input GET /call?item= CC(CC=O)CCCC(C)(C)O (centres undefined) returns the recorded outcome of this test.
# output inactive

# input # lookup: test call for "Oc1cn2c(n1)Nc1ccc(Cl)c(Cl)c1C2"
# output inactive

# input For "CC(=O)NCc1c(I)c(NC(C)=O)c(I)c(C(=O)O)c1I" , what call appears in the results of this test?
# output inactive

# input Test call, this compound: "O=C(O)C(=O)Cc1ccccc1"
# output inactive

# input Look up the recorded call for "O=C(CCN1CCN(CCO)CC1)N1c2ccccc2Sc2ccc(C(F)(F)F)cc21" in this test.
# output inactive

# input Given "Nc1ccc(S(=O)(=O)Nc2ccc(Cl)nn2)cc1" , state the outcome it received in this test.
# output inactive

# input Would you mind telling me which call this test gave "Cc1cc(Cl)c(C)cc1Cl" ?
# output inactive

# input Called result for "O=C(O)c1cc(Br)c(O)c(Br)c1"
# output inactive

----------
assay: qHTS RealTime-Glo MT Cell Viability Assay in HepG2 cells - 32 hour (AID 1224877); settings: RealTime-Glo luminescence; series mostly up to 76.8 µM; further: on the % scale 0 is the no-effect control and ±100 the full control effect; nearly all actives have a fitted effect of over 55% in size
Results filed as inconclusive are left out. Activity calls are given as the source filed them. Calls come from the whole dose curve; as a rule, active = well fitted cell-killing curve with a large enough effect in the repeat runs; inconclusive = weak or mixed curves; inactive = flat fitted curve, though single readings scatter.
METRIC: activity change, negative = cytotoxic

Some compounds with known activity change, negative = cytotoxic results, for comparison:
>  <COMPOUND>
CC1=C(C(=O)O)N2C(=O)[C@@H](NC(=O)[C@H](N)c3ccc(O)cc3)[C@H]2SC1

>  <activity change, negative = cytotoxic>
inactive

$$$$
>  <COMPOUND>
CCCCC(CC)COCCO (configuration not stated)

>  <activity change, negative = cytotoxic>
inactive

$$$$
>  <COMPOUND>
Nc1ccc([N+](=O)[O-])c(N)c1

>  <activity change, negative = cytotoxic>
inactive

$$$$
>  <COMPOUND>
Cc1ccc(S(=O)(=O)O)c(C)c1

>  <activity change, negative = cytotoxic>
inactive

$$$$
>  <COMPOUND>
O=C(OCC(COC(=O)c1cccnc1)(COC(=O)c1cccnc1)COC(=O)c1cccnc1)c1cccnc1

>  <activity change, negative = cytotoxic>
inactive

$$$$

# input # return recorded activity change, negative = cytotoxic for input "O=C(OCc1ccccc1)C(=O)OCc1ccccc1"
# output inactive

# input Please report the measured activity change, negative = cytotoxic for "CC(C)CCCCOC(=O)c1ccccc1C(=O)OCCCCC(C)C"
# output inactive

# input Tell us which activity change, negative = cytotoxic value is on record for "N[C@@H](CCC(=O)Nc1ccc([N+](=O)[O-])cc1)C(=O)O"
# output inactive

# input Provide activity change, negative = cytotoxic value for the following compound: "N[C@@H](COP(=O)(O)O)C(=O)O"
# output 1.44% [at 15.8 µM] (inactive)

# input Provide measured activity change, negative = cytotoxic value, entry: "CC(=O)Nc1cccc(C)c1"
# output inactive

# input Using the record for "O=C1O[C@@H]2[C@@H](O)[C@H](O)O[C@@H]2[C@H]1O" , state its measured activity change, negative = cytotoxic.
# output inactive

# input Fill in activity change, negative = cytotoxic for record "CCCCCCCC/C=C\CCCCCCCC(=O)OCCCC"
# output 6.1% [at 15.8 µM] (inactive)

----------
Test: qHTS assay to identify small molecule antagonists of the estrogen receptor alpha (ER-alpha) signaling pathway using the BG1 cell line (AID 743080);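 further: BG1 cells stimulated with 17beta-estradiol alongside compound; nearly all actives have a fitted effect of over 25% in size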
Settings: BG1Luc4E2 ERE-luciferase antagonist mode, luminescence; series mostly up to 70.3 µM
Text: National Center for Advancing Translational Sciences [NCATS] NIH Chemical Genomics Center [NCGC] U.S. Environmental Protection Agency [EPA] National Institutes of Environmental Health Sciences [NIEHS] National Toxicology Program [NTP] U.S. Food and Drug Administration [FDA] Estrogen receptor (ER), a nuclear hormone receptor, plays an important role in development, metabolic homeostasis and reproduction. […]
Records with an inconclusive call do not appear. Active and inactive are the calls of the source. Calls come from the whole dose curve.
Response enum: class 1 (active), class 0 (inactive)

>  <TEST SMILES>
O=C(Nc1ccc(Cl)c(Cl)c1)C1CC1

>  <QUALITATIVE LABEL>
class 1

$$$$

# input Field: outcome | Entry: "CCC(CC)CO"
# output class 0

# input Look up the recorded call for "On1nnc2ccccc21" in this test.
# output class 0

# input Given "O=C(OCc1ccccc1)C(=O)OCc1ccccc1" , state the outcome it received in this test.
# output class 0

# input Query: recorded result category for "CC(C)OC(=O)CCCCC(=O)OC(C)C" in this test
# output class 0

# input Hi, do you know how "CN(C)CCOCCO" came out in this test?
# output class 0

# input Which result was noted for this molecule in the test: "Nc1ccc([N+](=O)[O-])c(N)c1"
# output class 0

# input Kindly provide the recorded test outcome for the following molecule: "CCOC(=O)[C@H](CCc1ccccc1)N[C@@H](C)C(=O)N1C(=O)N(C)C[C@H]1C(=O)O"
# output class 0

----------
experiment: A CellTox Green Cytotoxicity Assay to monitor cytotoxicity in HEK293 cells - 8 hour (AID 1224884); conditions: CellTox Green fluorescence; series mostly up to 76.8 µM; further: on the % scale 0 is the no-effect control and ±100 the full control effect; nearly all actives have a fitted effect of over 35% in size
Records with an inconclusive call do not appear. Calls of active or inactive are those of the source. Calls follow the shape of the dose curve; as a rule, active = well fitted activation curve with a large enough effect in the repeat runs; inconclusive = weak or mixed curves; inactive = flat fitted curve, though single readings scatter.
METRIC: cytotoxicity increase

Check out these entries, answers already filled in.
>  <TEST SMILES>
CC(=O)CCCCn1c(=O)c2c(ncn2C)n(C)c1=O

>  <cytotoxicity increase>
inactive

$$$$
>  <TEST SMILES>
CCCCCCCCOS(=O)(=O)O

>  <cytotoxicity increase>
inactive

$$$$
>  <TEST SMILES>
COc1cc2c(cc1OC)[C@@H]1CC(=O)[C@@H](CC(C)C)CN1CC2

>  <cytotoxicity increase>
inactive

$$$$
>  <TEST SMILES>
COc1ccc2c(c1OC)C(=O)O[C@@H]2[C@H]1c2c(cc3c(c2OC)OCO3)CCN1C

>  <cytotoxicity increase>
inactive

$$$$
>  <TEST SMILES>
Nc1ccc([N+](=O)[O-])c(N)c1

>  <cytotoxicity increase>
inactive

$$$$
>  <TEST SMILES>
O=C(O)Cc1cn(-c2ccccc2)nc1-c1ccc(Cl)cc1

>  <cytotoxicity increase>
inactive

$$$$

# input Please look at this compound and report its cytotoxicity increase: "CC(C)C(=O)OCCc1ccccc1"
# output inactive

----------
assay: qHTS assay to identify small molecule antagonists of the sonic hedgehog signaling (Shh) pathway - cell viability counter screen (AID 1259367); settings: NIH/3T3 Gli1-Luc viability, CellTiter-Fluor, 24 h; series mostly up to 92.4 µM; further: on the % scale 0 is the no-effect control and ±100 the full control effect; nearly all actives have a fitted effect of over 55% in size
Records with an inconclusive call do not appear. Calls of active or inactive are those of the source. Calls come from the whole dose curve; as a rule, active = well fitted cell-killing curve with a large enough effect in the repeat runs; inconclusive = weak or mixed curves, or effect the other way; inactive = no such curve, though single readings can be large or run the other way.
METRIC: viability change, negative = cytotoxic

>  <COMPOUND>
COCCc1ccc(OCC2CO2)cc1 (configuration not stated)

>  <viability change, negative = cytotoxic>
inactive

$$$$
>  <COMPOUND>
CC(=O)Nc1ccc(S(=O)(=O)Cl)cc1

>  <viability change, negative = cytotoxic>
inactive

$$$$
>  <COMPOUND>
CC(=O)Nc1cccc(C)c1

>  <viability change, negative = cytotoxic>
inactive

$$$$
>  <COMPOUND>
O=C(O)c1cc(Br)c(O)c(Br)c1

>  <viability change, negative = cytotoxic>
inactive

$$$$

# input Write down viability change, negative = cytotoxic measured for item "ClCCCl"
# output inactive

# input Item "C=CCCCCCCCCCCCC" : provide viability change, negative = cytotoxic
# output inactive

# input Report measured viability change, negative = cytotoxic; entry is "CCCCN"
# output inactive
